TARGET_ENTITY: Calmodulin-1 (Homo sapiens)
RUN_DESCRIPTION: calcium-bound CALM1 binders on microarrays, profiling panel, artefact control for SMM control-protein annotation, biochemical, small-molecule microarray, Cy5-labelled CALM1, plus calcium (AID 1112);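 also: score merges spot fluorescence with signal to noise from triplicate slides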
EXPERIMENTAL_CONTEXT: Cy5-CALM1 binding fluorescence, higher = more signal
Parameter threshold = -0.2. Response is yes when composite z-score meets or exceeds it, else no.

>>> classification("CSCC[C@@H]1NC(=O)CC=C[C@@H](C)COC(=O)[C@H](C)COC1=O")
"no"
>>> classification("COC(=O)[C@H](C)NC(=O)CCC1CC(OC(=O)NCc2ccc3c(c2)OCO3)CC2(CCCC(COC(=O)NCCCN3CCCC3=O)O2)O1 (some centres not stated)")
"yes"
>>> classification("CON=C(C)CCN1CCc2nc(-c3ccccc3)c(-c3ccccc3)cc2C1")
"yes"
>>> classification("CC(=O)OC[C@H]1O[C@H](CCON=C(C)C)C=C[C@@H]1OC(C)=O")
"no"
>>> classification("CC(=O)OC[C@H]1O[C@H](CC=NOCC[C@@H]2C=C[C@H](OC(C)=O)[C@@H](COC(C)=O)O2)C=C[C@@H]1OC(C)=O")
"yes"
>>> classification("C[C@@H]1CC[C@H]2C(=O)O[C@@H](CN=[N+]=[N-])CN2[C@H]1c1ccc(Br)cc1")
"no"
>>> classification("CCc1cc2c(nc1CC)CCN(CCC(C)=NOCC[C@@H]1C=C[C@H](OC(C)=O)[C@@H](COC(C)=O)O1)C2")
"no"
>>> classification("COC(=O)[C@@H]1CC[C@H](C)[C@@H](c2ccc(C)cc2)N1C(=O)c1ccc(C=NOC[C@H]2O[C@H](c3ccccc3)C=C[C@@H]2Oc2ccc(OC)cc2)cc1")
"no"
>>> classification("CC(=O)OC[C@H]1O[C@H](C#CCC2CCCCC2)C=C[C@@H]1OC(C)=O")
"no"
>>> classification("O=C1C[C@@H](O)[C@@H](O)[C@@H]2[C@@H]3C(=O)N(c4ccc(F)cc4F)C(=O)[C@@H]3CC[C@H]12")
"no"
>>> classification("C[C@H]1C=CCC(=O)OC[C@H](C)C(=O)N2CCC[C@H]2C(=O)OC1")
"no"
>>> classification("C=CC[C@@H]1C=C[C@H](Oc2ccc(C)cc2)[C@@H](COC(=O)NCc2cccc3ccccc23)O1")
"no"
>>> classification("CC(=O)OC[C@H]1O[C@H](CC=NO[C@@H](C)c2cn([C@H](CO)Cc3ccccc3)nn2)C=C[C@@H]1OC(C)=O")
"yes"
>>> classification("C#CCCCON=C1C[C@@H](O)[C@@H](O)[C@@H]2[C@@H]3C(=O)N(C[C@@H]4CCCO4)C(=O)[C@@H]3CC[C@@H]12")
"yes"
>>> classification("CCOC(=O)[C@H](Cc1ccccc1)NC(=O)CCC1CC(OC(=O)NCc2cccc3ccccc23)CC2(CCCC(COC(=O)NCCc3ccccc3OC)O2)O1 (some centres not stated)")
"no"
>>> classification("CCO[C@H](c1cc(OC)cc([N+](=O)[O-])c1OC)[C@H](C)[C@@H](OC)[C@H](C)C=CCC(=O)OC")
"yes"
>>> classification("COC(=O)C(C(=O)OC)C1CCCC(=O)C1 (configuration not stated)")
"no"
>>> classification("CCCC[C@H]1CN2[C@@H](CC[C@@H](C)[C@@H]2c2ccc(Br)cc2)C(=O)O1")
"yes"
>>> classification("CCOC(=O)NN=C1C[C@@H](O)[C@@H](O)[C@@H]2[C@@H]3C(=O)N(c4ccc(F)cc4F)C(=O)[C@@H]3CC[C@H]12")
"no"
>>> classification("CCOC(=O)CCN1C(=O)[C@H]2[C@H]3[C@H](O)[C@H](O)CC(=NOCC=C(C)CCC=C(C)C)[C@H]3CC[C@H]2C1=O")
"no"
>>> classification("CCN1C(=O)[C@H]2[C@H]3[C@H](O)[C@H](O)CC(=NOCC[C@@H]4C=C[C@H](OC(C)=O)[C@@H](COC(C)=O)O4)[C@@H]3CC[C@H]2C1=O")
"no"
>>> classification("COC(=O)[C@@H]1CC[C@H](C)[C@@H](c2ccc(Br)cc2)N1")
"yes"
>>> classification("CCOC(=O)[C@H](CC(C)C)NC(=O)CCC1CC(OC(=O)NCc2ccc3c(c2)OCO3)CC2(CCCC(COC(=O)NCCOc3ccccc3)O2)O1 (some centres not stated)")
"no"
>>> classification("C[C@@H](c1ccccc1)N1C(=O)[C@H]2[C@H]3[C@H](O)[C@H](O)CC(=NNC(=O)OCc4ccccc4)[C@@H]3CC[C@H]2C1=O")
"no"
>>> classification("CC(C)[C@@H](OCc1ccccc1)[C@H](C)CON=C1[C@H]2CCn3c(=O)n(-c4ccccc4)c(=O)n3[C@H]2[C@H](O)[C@@H]2O[C@H]12")
"no"
>>> classification("O=C1C=C[C@@H](O)[C@@H]2[C@@H]3C(=O)N(c4cccc(Oc5ccccc5)c4)C(=O)[C@@H]3CC[C@@H]12")
"no"
>>> classification("CCOC(=O)[C@H](CC(C)C)NC(=O)CCC1CC(OC(=O)NCCc2ccc(F)cc2)CC2(CCCC(COC(=O)NCc3cccc(C(F)(F)F)c3)O2)O1 (some centres not stated)")
"no"
